Biological target: Matrix protein 2 (Influenza A virus (A/Udorn/307/1972(H3N2)), UniProt P0DOF8)
Sequence (P0DOF8 whole entry): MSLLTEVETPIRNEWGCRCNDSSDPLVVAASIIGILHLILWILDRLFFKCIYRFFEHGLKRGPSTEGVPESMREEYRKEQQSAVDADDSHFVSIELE
Test: Inhibition of Influenza A virus A/Udorn/72 wild-type M2 proton channel expressed in Xenopus laevis oocytes assessed as blockade of inward currents at pH 5.5 after 2 mins by two-electrode voltage clamp assay
Assay type: cell-based, Influenza A virus (A/udorn/1972(H3N2))
experimental_endpoint: IC50 (µM)
Number in µM, nothing else.

Data request: Return IC50 (reported value) for this molecule: CCC(N)(CC)C12CC3CC(CC(C3)C1)C2
Data returned: 24.3

As a next step, examine the molecule that follows.
Data request: Return IC50 (reported value) for this molecule: CC(C)(N)C12CC3CC(CC(C3)C1)C2
Data returned: 9.3

====

Listing of entries alongside the reported IC50.
Target: Matrix protein 2 (Influenza A virus (A/Udorn/307/1972(H3N2)), UniProt P0DOF8)
Experiment: Inhibition of Influenza A virus A/Udorn/72 wild-type M2 proton channel expressed in Xenopus laevis oocytes assessed as blockade of inward currents at pH 5.5 after 5 mins by two-electrode voltage clamp assay
Type: cell-based, Influenza A virus (A/udorn/1972(H3N2))
Number in µM, nothing else.

Data request: Return IC50 (reported value) for this compound: CCC(N)(CC)C12CC3CC(CC(C3)C1)C2
Data returned: 13.2

As a next step, examine the compound that follows.
Data request: Return IC50 (reported value) for this compound: CC(C)(N)C12CC3CC(CC(C3)C1)C2
Data returned: 4

====

Molecular target: Matrix protein 2 (Influenza A virus (A/Udorn/307/1972(H3N2)), UniProt P0DOF8)
Experiment: Binding affinity to Influenza A virus A/Udorn/72 wild-type M2 proton channel by isothermal calorimetric titration
Design: species or system Influenza A virus (A/udorn/1972(H3N2))
Listing of entries alongside the reported pKd.
To interpret pKd, take it as minus log10 of a concentration measured in moles per litre.

Data request: Return pKd (reported value) for this compound: CCC(N)(CC)C12CC3CC(CC(C3)C1)C2
Data returned: 5.34

---
Data request: Return pKd (reported value) for this compound: CCCC(N)(CCC)C12CC3CC(CC(C3)C1)C2
Data returned: 5.46

Data request: Return pKd (reported value) for this compound: CC(C)(N)C12CC3CC(CC(C3)C1)C2
Data returned: 6.89

====

Listing of entries alongside the reported pKd.
Molecular target: Matrix protein 2 (Influenza A virus (A/Udorn/307/1972(H3N2)), UniProt P0DOF8)
Assay: Binding affinity to Influenza A virus A/Udorn/72 wild-type M2 proton channel expressed in Xenopus laevis oocytes at pH 5.5 by two-electrode voltage clamp assay
Type: cell-based, Influenza A virus (A/udorn/1972(H3N2))
To interpret pKd, take it as minus log10 of a concentration measured in moles per litre.

Data request: Return pKd (reported value) for this compound: CCCC(N)(CCC)C12CC3CC(CC(C3)C1)C2
Data returned: 4.06

As a next step, examine the compound that follows.
Data request: Return pKd (reported value) for this compound: CC(C)(N)C12CC3CC(CC(C3)C1)C2
Data returned: 4.89
